Cited source for all entries: patent US9695155B2

So I've got a bunch of compounds here, and I need their Plant response rating, Foxtail, Giant values.
System: giant foxtail
protocol_description: Test A preemergence
Type: in vivo, Setaria faberii
measurement_parameters: 31 g ai/ha, 0 to 100 scale where 0 is no effect and 100 is complete control, visual, approximately 10 days
Answers are plain numbers.

>>> test_value("FCc1cccc(Oc2ncc(Cl)cn2)c1-n1cc(I)cn1")
60

Need Plant response rating, Foxtail, Giant for each of these compounds.
1. N#Cc1cnn(-c2c(Cl)cccc2Oc2ncc(Cl)cn2)c1
2. Cc1cc(C(F)(F)F)nn1-c1ccccc1Oc1ncc(Cl)cn1
3. CCCOc1cnn(-c2c(F)cccc2Oc2ncc(F)cn2)c1

OUT:
1. 70
2. 0
3. 0

IN: Recorded Plant response rating, Foxtail, Giant for FCc1cccc(Oc2ncc(Br)cn2)c1-n1cc(I)cn1 , please?
OUT: 0

----------
So I've got a bunch of molecules here, and I need their Velvetleaf plant response rating values.
System: velvetleaf
protocol_description: Test C postemergence
Assay type: in vivo, Abutilon theophrasti
measurement_parameters: 31 g ai/ha, postemergence; visual rating, scale 0 to 100 (0 no effect, 100 complete control), 13 to 15 days
Text: […]
Answers are plain numbers.

>>> test_value("N#Cc1cnn(-c2c(Oc3ncc(F)cn3)cccc2C(F)F)c1 [Compound 240]")
25
>>> test_value("N#Cc1cccc(Oc2ncc(Cl)cn2)c1-n1cc(OCC(F)(F)F)cn1 [Compound 274]")
50
>>> test_value("Clc1cnc(Oc2ccccc2-n2cc(C3CC3)nn2)nc1 [Compound 160]")
65
>>> test_value("Fc1cnc(Oc2cccc(C(F)F)c2-n2cc(C(F)(F)F)cn2)nc1 [Compound 164]")
15
>>> test_value("Clc1cnc(Oc2cccc(Cl)c2-n2cc(Cl)cn2)nc1 [Compound 220]")
50

Please examine the following record next.
IN: Recorded Velvetleaf plant response rating for Clc1cnc(Oc2ccccc2-n2cc(I)nn2)nc1 [Compound 222] , please?
OUT: 35

----------
System: chickweed
protocol_description: Test C postemergence
Assay type: in vivo, Stellaria media
measurement_parameters: 31 g ai/ha, postemergence; visual rating, scale 0 to 100 (0 no effect, 100 complete control), 13 to 15 days
observable: Chickweed plant response rating
Answers are plain numbers.

// solved cases for Chickweed plant response rating follow
>>> test_value("Fc1cnc(Oc2ccccc2-n2cc(C(F)F)cn2)nc1")
30
>>> test_value("Fc1cccc(Oc2ncc(Cl)cn2)c1-n1cc(Cl)cn1")
50
>>> test_value("O=Cc1cccc(Oc2ncc(I)cn2)c1-n1cc(Br)cn1")
50

Please examine the following record next.
IN: Recorded Chickweed plant response rating for FCc1cccc(Oc2ncc(Cl)cn2)c1-n1cc(I)cn1 , please?
OUT: 60

----------
So I've got a bunch of molecules here, and I need their Plant response rating, Lambsquarters values.
Tested on: lambsquarters
protocol_description: Test C postemergence
Format: in vivo, Chenopodium album
measurement_parameters: Postemergence, 62 g ai/ha; scale 0 to 100 (0 no effect, 100 complete control)
Description: […]
Numbers only.

// solved cases for Plant response rating, Lambsquarters follow
>>> test_value("Cc1cnc(Oc2cccc(C#N)c2-n2cc(C(F)(F)F)cn2)nc1")
75
>>> test_value("Fc1cnc(Oc2cccc(C(F)F)c2-n2cc(C(F)(F)F)cn2)nc1")
40
>>> test_value("CC(C)c1cnn(-c2c(C#N)cccc2Oc2ncc(Cl)cn2)c1")
75
>>> test_value("Fc1cnc(Oc2cccc(C(F)F)c2-n2cc(Cl)cn2)nc1")
75

Please examine the following record next.
IN: Recorded Plant response rating, Lambsquarters for Clc1cnc(Oc2cccc(Br)c2-n2cc(I)nn2)nc1 , please?
OUT: 50
